- Tested on: MCF-7 cells
- Assay Protocol: Cytotoxicity assay (IC50 measurement, MTT)
- Type: cell-based, human
- Stated Conditions: MCF-7, 96 hrs, read-out: IC50 values for different complexes in MCF-7 cells
Property: pIC50; scope: individual molecules
Scale: negative log10 of molar concentration, which is what pIC50 denotes.

As a guide, the following entries are already answered.
Molecule: CC(=O)[O-].COc1cccc(C=Nc2ccccc2N=Cc2cccc(OC)c2[O-])c1[O-].[Mn+3] [compound 12, 3,3′-Dimethoxysalphen Mn(III) acetate]
pIC50: 4.65
//
Molecule: CC(=O)[O-].[Mn+3].[O-]c1c(O)cccc1C=Nc1cc2ccccc2cc1N=Cc1cccc(O)c1[O-] [compound 16, 3,3′-Dihydroxysalnaphen Mn(III) acetate]
pIC50: 4.39
//
Molecule: CC(=O)[O-].[Mn+3].[O-]c1ccc(O)cc1C=NCCN=Cc1cc(O)ccc1[O-] [compound 4, 5,5′-Dihydroxysalen Mn(III) acetate]
pIC50: 4.37
//
Molecule: CC(=O)[O-].[Mn+3].[O-]c1c(O)cccc1C=Nc1ccccc1N=Cc1cccc(O)c1[O-] [compound 9, 3,3′-Dihydroxysalphen Mn(III) acetate]
pIC50: 4.76
//
Molecule: CC(=O)[O-].COc1ccc([O-])c(C=Nc2ccccc2N=Cc2cc(OC)ccc2[O-])c1.[Mn+3] [compound 14, 5,5′-Dimethoxysalphen Mn(III) acetate]
pIC50: 4.25
//
Molecule: COc1ccc(C=NCCN=Cc2ccc(OC)cc2[O-])c([O-])c1.[Cl-].[Fe+3] [compound 27, 4,4′-Dimethoxysalen Fe(III) chloride]
pIC50: 4.91

Input CC(=O)[O-].[Mn+3].[O-]c1c(O)cccc1C=NCCN=Cc1cccc(O)c1[O-] [compound 2, 3,3′-Dihydroxysalen Mn(III) acetate] . Output pIC50: 4.43

Input CC(=O)[O-].COc1ccc([O-])c(C=Nc2cc3ccccc3cc2N=Cc2cc(OC)ccc2[O-])c1.[Mn+3] [compound 21, 5,5′-Dimethoxysalnaphen Mn(III) acetate] . Output pIC50: 4.72

Input [Cl-].[Fe+3].[O-]c1ccccc1C=Nc1ccccc1N=Cc1ccccc1[O-] [compound 29, Fe(III)-salphen.chloride] . Output pIC50: 5.90
